targetEntity: T1, BcnI H77N+H219N (UniProt Q8RNV8 1-238, H77N;H219N)
T1 sequence: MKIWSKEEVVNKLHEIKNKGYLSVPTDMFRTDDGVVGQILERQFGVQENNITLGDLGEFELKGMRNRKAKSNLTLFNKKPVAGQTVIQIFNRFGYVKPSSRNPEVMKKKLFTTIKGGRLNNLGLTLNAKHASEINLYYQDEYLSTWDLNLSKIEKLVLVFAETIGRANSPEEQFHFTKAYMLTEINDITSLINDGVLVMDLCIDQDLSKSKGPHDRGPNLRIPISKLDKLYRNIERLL
procedureSummary: EMSA
property: Kd (µM)

binder="CG oligoduplex (cognate) (dsDNA) DNA 1: CGCACGACTTCCCGGAAGAGCACGC DNA 2: GTTGCGTGCTCTTCCGGGAAGTCGTGCG" measuredresult=0.02
